The reported numbers originate from patent US20240165282A1.

Target: human cloned somatostatin receptor 1 (human) (UniProt P30872)
Sequence (P30872 whole entry): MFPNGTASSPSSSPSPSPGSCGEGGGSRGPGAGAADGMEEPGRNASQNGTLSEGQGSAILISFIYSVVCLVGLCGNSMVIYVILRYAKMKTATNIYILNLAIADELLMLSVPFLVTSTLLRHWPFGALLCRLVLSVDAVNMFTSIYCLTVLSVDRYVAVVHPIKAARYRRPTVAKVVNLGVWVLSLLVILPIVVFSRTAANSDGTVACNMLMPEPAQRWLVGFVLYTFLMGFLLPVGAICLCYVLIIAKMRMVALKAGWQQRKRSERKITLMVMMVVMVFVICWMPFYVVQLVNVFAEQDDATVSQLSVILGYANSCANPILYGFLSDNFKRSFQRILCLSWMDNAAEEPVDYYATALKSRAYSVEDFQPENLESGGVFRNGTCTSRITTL
Experiment: 125I-Tyr11-SRIF-14 displacement
*1 amine or outer side, *2 acyl side, *3 side chain or, on linkers, in order; H or OH if unused. Bridges are numbered along the chain shown (N, C = ends). [ ]: non-standard residue; d: D form. The star is where a group is joined. DOTA = O=C(O)CN1CCN(CC(=O)O)CCN(CC(=O)*)CCN(CC(=O)O)CC1; N(2-mercaptoethyl)Gly = O=C(CN(CCS[*:3])[*:1])[*:2]; Orn = NCCC[C@H](N)C(=O)O; Aoc = NCCCCCCCC(=O)O; CPT = camptothecin
Catalogue of % displacement at 1 nM values
measured_parameter: % displacement at 1 nM (%)

INSERT INTO measurements (binder, measured_parameter, measured_number) VALUES
  ('{CPT-Aoc}-[dF]RCF[dW]KTF[N(2-mercaptoethyl)Gly]-NH2 (disulfide 3-9) [SEQ ID NO: 27]', '% displacement at 1 nM', 0),
  ('{DOTA}-[dF]EE[Orn]CF[dW]KTF[N(2-mercaptoethyl)Gly]-NH2 (disulfide 5-11; SMILES C[C@@H](O)[C@@H]1NC(=O)[C@H](CCCCN)NC(=O)[C@@H](Cc2c[nH]c3ccccc23)NC(=O)[C@H](Cc2ccccc2)NC(=O)[C@@H](NC(=O)[C@H](CCCN)NC(=O)[C@H](CCC(=O)O)NC(=O)[C@H](CCC(=O)O)NC(=O)[C@@H](Cc2ccccc2)NC(=O)CN2CCN(CC(=O)O)CCN(CC(=O)O)CCN(CC(=O)O)CC2)CSSCCN(CC(N)=O)C(=O)[C@H](Cc2ccccc2)NC1=O) [SEQ ID NO: 22]', '% displacement at 1 nM', 8),
  ('{DOTA}-[dF]RCY[dW]KTF[N(2-mercaptoethyl)Gly]-NH2 (disulfide 3-9; SMILES C[C@@H](O)[C@@H]1NC(=O)[C@H](CCCCN)NC(=O)[C@@H](Cc2c[nH]c3ccccc23)NC(=O)[C@H](Cc2ccc(O)cc2)NC(=O)[C@@H](NC(=O)[C@H](CCCNC(=N)N)NC(=O)[C@@H](Cc2ccccc2)NC(=O)CN2CCN(CC(=O)O)CCN(CC(=O)O)CCN(CC(=O)O)CC2)CSSCCN(CC(N)=O)C(=O)[C@H](Cc2ccccc2)NC1=O) [SEQ ID NO: 25]', '% displacement at 1 nM', 1);
